target: human HER3 endogenously expressed on human cancer cells (SK-Br-3, BT-474, MCF7) (human, UniProt P21860 20-1342); assay: cell-based or functional assay
In this section we review reported SK-Br-3 pHER3 IC50 values for a set of binders.
ASSAY METRIC: SK-Br-3 pHER3 IC50

BINDER	OBS VALUE
MOR13668 (antibody, human IgG1, lambda, V domains shown) VH: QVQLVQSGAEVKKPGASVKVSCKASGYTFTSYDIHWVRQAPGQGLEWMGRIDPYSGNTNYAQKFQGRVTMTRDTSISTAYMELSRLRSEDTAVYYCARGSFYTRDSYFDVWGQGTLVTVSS VL: DIALTQPASVSGSPGQSITISCTGTSSDVGTYNQVSWYQQHPGKAPKLMIYGVSKRPSGVSNRFSGSKSGNTASLTISGLQAEDEADYYCQVWDSDQAMVFGGGTKLTVLG	657 pM
MOR13655 (antibody, human IgG1, lambda, V domains shown, Tested as IgG) VH: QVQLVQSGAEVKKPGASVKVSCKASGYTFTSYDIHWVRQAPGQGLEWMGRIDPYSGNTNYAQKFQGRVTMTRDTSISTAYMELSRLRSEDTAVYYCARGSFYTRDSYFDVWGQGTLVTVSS VL: DIALTQPASVSGSPGQSITISCTGTSSDVGTYNQVSWYQQHPGKAPKLMIYGVSKRPSGVSNRFSGSKSGNTASLTISGLQAEDEADYYCSSATQKPDVTVFGGGTKLTVLG	90 pM
